molecular target: T1, human c-Met (Sino Biological) (human, UniProt P08581 25-932, limits assumed); assay: SPR (Biacore T200), IgG captured on Protein A CM5 chip, c-Met 0.15-2 nM as analyte
T1 construct: Analyte in the Biacore assay; also called antigen (c-Met); printed as "human c-Met antibody (Sino Biological, Beijing, China)"
T1 sequence (P08581 25-932 limits assumed): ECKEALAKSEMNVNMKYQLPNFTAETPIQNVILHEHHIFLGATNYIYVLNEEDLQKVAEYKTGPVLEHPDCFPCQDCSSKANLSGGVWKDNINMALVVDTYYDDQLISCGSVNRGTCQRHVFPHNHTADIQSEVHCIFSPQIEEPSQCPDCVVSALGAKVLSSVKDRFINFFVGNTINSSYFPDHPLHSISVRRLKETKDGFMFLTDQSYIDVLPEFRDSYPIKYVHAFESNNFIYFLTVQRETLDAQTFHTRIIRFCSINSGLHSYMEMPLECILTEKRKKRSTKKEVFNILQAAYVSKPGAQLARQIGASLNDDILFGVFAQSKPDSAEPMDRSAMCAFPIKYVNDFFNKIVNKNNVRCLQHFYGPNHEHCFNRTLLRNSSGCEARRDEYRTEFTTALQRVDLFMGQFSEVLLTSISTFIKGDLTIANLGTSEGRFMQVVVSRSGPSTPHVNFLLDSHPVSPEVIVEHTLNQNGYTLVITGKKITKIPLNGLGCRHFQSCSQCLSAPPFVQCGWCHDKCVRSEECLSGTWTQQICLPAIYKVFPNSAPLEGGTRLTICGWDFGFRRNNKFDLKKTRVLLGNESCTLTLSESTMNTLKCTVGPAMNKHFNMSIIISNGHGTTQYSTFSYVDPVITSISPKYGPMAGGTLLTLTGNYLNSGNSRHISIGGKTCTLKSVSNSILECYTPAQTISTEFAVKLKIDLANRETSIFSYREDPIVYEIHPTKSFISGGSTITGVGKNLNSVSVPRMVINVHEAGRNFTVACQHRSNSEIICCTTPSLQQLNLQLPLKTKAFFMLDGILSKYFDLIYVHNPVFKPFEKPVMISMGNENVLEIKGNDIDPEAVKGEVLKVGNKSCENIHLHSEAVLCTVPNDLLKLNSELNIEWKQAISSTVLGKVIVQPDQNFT
metric: Kd (nM)
# value in nM; strip the unit string

So what's the measured Kd for this one? VH4/Vk2 (antibody, IgG1, V domains shown, Full IgG1/kappa expressed in HEK 293 EBNA cells) VH: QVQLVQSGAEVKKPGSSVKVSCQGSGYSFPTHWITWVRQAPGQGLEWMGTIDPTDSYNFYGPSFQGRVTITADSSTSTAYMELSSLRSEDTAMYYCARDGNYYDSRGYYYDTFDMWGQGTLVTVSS VL: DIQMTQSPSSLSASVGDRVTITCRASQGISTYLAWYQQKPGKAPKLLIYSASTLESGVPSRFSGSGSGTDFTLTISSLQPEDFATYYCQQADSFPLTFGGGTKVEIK
0.423

More entries:
So what's the measured Kd for this one? VH5/Vk2 (antibody, IgG1, V domains shown, Full IgG1/kappa expressed in HEK 293 EBNA cells) VH: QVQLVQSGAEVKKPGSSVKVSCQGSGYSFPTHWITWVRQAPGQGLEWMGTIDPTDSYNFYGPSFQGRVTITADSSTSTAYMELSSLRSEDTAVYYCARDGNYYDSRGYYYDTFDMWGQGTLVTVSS VL: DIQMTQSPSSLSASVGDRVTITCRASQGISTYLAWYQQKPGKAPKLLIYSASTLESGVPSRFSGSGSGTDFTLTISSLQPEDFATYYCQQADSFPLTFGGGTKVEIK
0.42

So what's the measured Kd for this one? VH4/Vk5 (antibody, IgG1, V domains shown, Full IgG1/kappa expressed in HEK 293 EBNA cells) VH: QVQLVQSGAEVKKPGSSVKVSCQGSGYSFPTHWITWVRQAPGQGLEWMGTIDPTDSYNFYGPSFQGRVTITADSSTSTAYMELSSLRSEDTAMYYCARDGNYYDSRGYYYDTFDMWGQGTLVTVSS VL: EIVLTQSPGTLSLSPGERATLSCRASQGISTYLAWYQQKPGQAPRLLIYSASTLESGIPDRFSGSGSGTDFTLTISRLEPEDFATYYCQQADSFPLTFGGGTKVEIK
0.526

So what's the measured Kd for this one? VH6/Vk2 (antibody, IgG1, V domains shown, Full IgG1/kappa expressed in HEK 293 EBNA cells) VH: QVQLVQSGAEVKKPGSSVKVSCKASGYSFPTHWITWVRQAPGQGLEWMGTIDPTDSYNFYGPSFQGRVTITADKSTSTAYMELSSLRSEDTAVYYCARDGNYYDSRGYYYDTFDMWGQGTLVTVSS VL: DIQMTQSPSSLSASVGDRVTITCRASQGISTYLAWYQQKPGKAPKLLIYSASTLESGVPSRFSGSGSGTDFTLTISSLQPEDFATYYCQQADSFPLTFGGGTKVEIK
0.44

So what's the measured Kd for this one? VH4/Vk3 (antibody, IgG1, V domains shown, Full IgG1/kappa expressed in HEK 293 EBNA cells) VH: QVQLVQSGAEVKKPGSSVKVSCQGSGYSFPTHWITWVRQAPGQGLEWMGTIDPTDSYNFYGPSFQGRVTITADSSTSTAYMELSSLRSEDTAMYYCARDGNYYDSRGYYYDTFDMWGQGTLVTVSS VL: DIQMTQSPGFLSLSPGERATLSCRASQGISTYLAWYQQKPGQAPRLLIYSASTLESGVPDRFSGSGSGTDFTLTISRLEPEDFATYYCQQADSFPLTFGGGTKVEIK
0.422

So what's the measured Kd for this one? VH5/Vk0 (antibody, IgG1, V domains shown, Full IgG1/kappa expressed in HEK 293 EBNA cells) VH: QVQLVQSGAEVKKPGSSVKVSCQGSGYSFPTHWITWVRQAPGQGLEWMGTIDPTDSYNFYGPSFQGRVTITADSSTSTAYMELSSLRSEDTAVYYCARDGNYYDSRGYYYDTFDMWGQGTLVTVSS VL: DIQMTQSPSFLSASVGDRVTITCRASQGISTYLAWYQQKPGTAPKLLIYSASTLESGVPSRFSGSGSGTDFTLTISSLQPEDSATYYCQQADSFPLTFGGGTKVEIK
0.352

So what's the measured Kd for this one? VH6/Vk5 (antibody, IgG1, V domains shown, Full IgG1/kappa expressed in HEK 293 EBNA cells) VH: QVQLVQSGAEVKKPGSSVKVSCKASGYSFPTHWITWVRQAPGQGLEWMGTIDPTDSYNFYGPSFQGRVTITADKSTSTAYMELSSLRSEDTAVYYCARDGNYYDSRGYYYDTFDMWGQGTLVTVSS VL: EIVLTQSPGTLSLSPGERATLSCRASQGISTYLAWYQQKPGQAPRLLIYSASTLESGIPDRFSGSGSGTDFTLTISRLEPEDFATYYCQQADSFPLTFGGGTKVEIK
0.557

So what's the measured Kd for this one? VH2/Vk2 (antibody, IgG1, V domains shown, Full IgG1/kappa expressed in HEK 293 EBNA cells) VH: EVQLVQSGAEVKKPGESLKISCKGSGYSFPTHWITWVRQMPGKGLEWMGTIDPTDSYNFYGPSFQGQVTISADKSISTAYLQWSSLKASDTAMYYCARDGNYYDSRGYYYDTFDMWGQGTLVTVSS VL: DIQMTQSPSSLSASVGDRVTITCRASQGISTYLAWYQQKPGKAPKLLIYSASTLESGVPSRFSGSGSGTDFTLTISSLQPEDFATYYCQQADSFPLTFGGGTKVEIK
0.502

So what's the measured Kd for this one? VH0/Vk0 (antibody, IgG1, V domains shown, Full IgG1/kappa with the variable domains of 1E4; also called 1E4 antibody variant including the constant domain where the residues were substituted) VH: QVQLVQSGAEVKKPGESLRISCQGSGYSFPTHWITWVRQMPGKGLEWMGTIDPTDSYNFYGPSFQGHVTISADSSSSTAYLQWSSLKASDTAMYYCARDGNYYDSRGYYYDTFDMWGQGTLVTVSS VL: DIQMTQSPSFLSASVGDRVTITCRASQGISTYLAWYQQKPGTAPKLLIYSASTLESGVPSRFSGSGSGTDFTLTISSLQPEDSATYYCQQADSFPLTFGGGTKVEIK
0.52

So what's the measured Kd for this one? VH6/Vk3 (antibody, IgG1, V domains shown, Full IgG1/kappa expressed in HEK 293 EBNA cells) VH: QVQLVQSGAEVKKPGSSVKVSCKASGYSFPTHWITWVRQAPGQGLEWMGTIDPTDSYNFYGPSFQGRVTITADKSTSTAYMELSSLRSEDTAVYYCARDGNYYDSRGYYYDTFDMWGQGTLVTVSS VL: DIQMTQSPGFLSLSPGERATLSCRASQGISTYLAWYQQKPGQAPRLLIYSASTLESGVPDRFSGSGSGTDFTLTISRLEPEDFATYYCQQADSFPLTFGGGTKVEIK
0.431
